- EXPERIMENTAL TARGET: SMN (aa 80–170) (Homo sapiens)
- Sequence (Q16637 80-170): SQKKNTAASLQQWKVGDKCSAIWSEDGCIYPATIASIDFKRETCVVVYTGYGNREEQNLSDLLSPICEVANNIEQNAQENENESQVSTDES
Square brackets hold non-standard residues; d marks the D form. Peptide text beside a SMILES is read from it. Arg(Me2s) = CN=C(NC)NCCC[C@H](N)C(=O)O

>  <COMPOUND>
CN=C(NC)NCCC[C@H](NC(=O)[C@H](CCSC)NC(=O)CNC(=O)[C@@H]1CCCN1C(=O)[C@@H]1CCCN1)C(=O)N1CCC[C@H]1C(=O)N1CCC[C@H]1C(=O)N1CCC[C@H]1C(=O)N1CCC[C@H]1C(=O)NCC(=O)O [PGM(SmB214SD)] (H-PPGM[Arg(Me2s)]PPPPG-OH; N-terminus and C-terminus assumed)

>  <EXPERIMENTAL TARGET>
SMN (aa 80–170) (Homo sapiens)

>  <Kd>
> 400 µM

$$$$
>  <COMPOUND>
CN=C(NC)NCCC[C@H](NC(=O)CNC(=O)[C@@H]1CCCN1C(=O)[C@@H]1CCCN1C(=O)[C@@H](N)Cc1ccc(O)cc1)C(=O)NCC(=O)NCC(=O)N1CCC[C@H]1C(=O)N1CCC[C@H]1C(=O)N1CCC[C@H]1C(=O)O [PGM(SmB165SD)] (H-YPPG[Arg(Me2s)]GGPPP-OH; N-terminus and C-terminus assumed)

>  <EXPERIMENTAL TARGET>
SMN (aa 80–170) (Homo sapiens)

>  <Kd>
> 300 µM

$$$$
>  <COMPOUND>
CN=C(NC)NCCC[C@H](NC(=O)[C@H](CCSC)NC(=O)CNC(=O)[C@@H]1CCCN1C(=O)[C@@H]1CCCN1)C(=O)NCC(=O)N1CCC[C@H]1C(=O)N1CCC[C@H]1C(=O)N1CCC[C@H]1C(=O)O [PGM(SmB221SD)] (H-PPGM[Arg(Me2s)]GPPP-OH; N-terminus and C-terminus assumed)

>  <EXPERIMENTAL TARGET>
SMN (aa 80–170) (Homo sapiens)

>  <Kd>
> 500 µM

$$$$
